# Study target: Kappa-type opioid receptor (Mus musculus)
# Assay procedure: Equilibrium constant, ratio of IC50 for kappa opioid receptor in ddy mouse vas deferens in presence of 10 nM nor-BNI to IC50 for kappa opioid receptor in ddy mouse vas deferens
So basically: is Ke under 0.9 nM? Then yes. Not under? Then no.

Look over these answered cases.
Structure string | Study target | Label value
CN(C(=O)/C=C/c1ccccc1)[C@@H]1CC[C@@]2(O)[C@H]3Cc4ccc(O)c5c4[C@@]2(CCN3CC2CC2)[C@H]1O5 | Kappa-type opioid receptor (Mus musculus) | yes
Cc1cccc(/C=C/C(=O)N(C)[C@@H]2CC[C@@]3(O)[C@H]4Cc5ccc(O)c6c5[C@@]3(CCN4CC3CC3)[C@H]2O6)c1 | Kappa-type opioid receptor (Mus musculus) | no
CCCCCCO[C@@H]1CC[C@@]2(O)[C@H]3Cc4ccc(O)c5c4[C@@]2(CCN3CC2CC2)[C@H]1O5 | Kappa-type opioid receptor (Mus musculus) | yes
CN(C(=O)/C=C/c1cccc(C(F)(F)F)c1)[C@@H]1CC[C@@]2(O)[C@H]3Cc4ccc(O)c5c4[C@@]2(CCN3CC2CC2)[C@H]1O5 | Kappa-type opioid receptor (Mus musculus) | no
CN(C(=O)/C=C/c1ccsc1)[C@@H]1CC[C@@]2(O)[C@H]3Cc4ccc(O)c5c4[C@@]2(CCN3CC2CC2)[C@H]1O5 | Kappa-type opioid receptor (Mus musculus) | no
CCCCCC(=O)N[C@@H]1CC[C@@]2(O)[C@H]3Cc4ccc(O)c5c4[C@@]2(CCN3CC2CC2)[C@H]1O5 | Kappa-type opioid receptor (Mus musculus) | yes
CN(C(=O)/C=C/c1cccc([N+](=O)[O-])c1)[C@@H]1CC[C@@]2(O)[C@H]3Cc4ccc(O)c5c4[C@@]2(CCN3CC2CC2)[C@H]1O5 | Kappa-type opioid receptor (Mus musculus) | no
COc1cccc(/C=C/C(=O)N(C)[C@@H]2CC[C@@]3(O)[C@H]4Cc5ccc(O)c6c5[C@@]3(CCN4CC3CC3)[C@H]2O6)c1 | Kappa-type opioid receptor (Mus musculus) | no
CN(C(=O)/C=C/c1cccs1)[C@@H]1CC[C@@]2(O)[C@H]3Cc4ccc(O)c5c4[C@@]2(CCN3CC2CC2)[C@H]1O5 | Kappa-type opioid receptor (Mus musculus) | yes

Now take the following compound into account.
-- ask Consider the compound CN1CC[C@]23c4c5ccc(O)c4O[C@H]2[C@H](N(C)C(=O)/C=C/c2ccoc2)CC[C@@]3(O)[C@H]1C5 . Is its Ke strictly less than 0.9 nM?
-- reply no
